Origin of the recorded values: patent US20040097594A1

In this section we review reported IC50 values for a set of molecules.
# Test system: HIV-1 (strain IIIB)
# EXPERIMENT_DESCRIPTION: microbe, parasite or virus in culture
# Assay type: cell-based
# ASSAY_SETUP: Human immunodeficiency virus 1, 120 h; MT4 cells infected with HIV-1 strain IIIB, 5 days; lower line of each compound's entry; read-out: IC50 (MT-4 cells)

These recorded examples may help you get a feel for the data.
MOLECULE	IC50
COc1ccc(S(=O)(=O)N(C[C@@H](O)[C@H](Cc2ccccc2)NC(=O)OC2COCOC2)OC2CCOCC2)cc1	≤ 100 nM
O=C(N[C@@H](Cc1ccccc1)[C@H](O)CN(OC1CCCC1)S(=O)(=O)c1ccc2nccnc2c1)O[C@H]1CO[C@H]2OCC[C@H]21	≤ 100 nM
Nc1cccc(S(=O)(=O)N(C[C@@H](O)[C@H](Cc2ccccc2)NC(=O)O[C@H]2CO[C@H]3OCC[C@H]32)OC2CCCC2)c1 (single isomer, unassigned)	≤ 100 nM
Nc1n[nH]c2ccc(S(=O)(=O)N(C[C@@H](O)[C@H](Cc3ccccc3)NC(=O)O[C@H]3CO[C@H]4OCC[C@H]43)OC3CCCC3)cc12	> 500 nM
CNc1cccc(S(=O)(=O)N(C[C@@H](O)[C@H](Cc2ccccc2)NC(=O)O[C@H]2CO[C@H]3OCC[C@H]32)OC(C)C)c1	≤ 100 nM
O=C(N[C@@H](Cc1ccccc1)[C@H](O)CN(OC1CCCC1)S(=O)(=O)c1ccc2c(c1)OCO2)OC1CO[C@H]2OCC[C@@H]12 (stereo partly drawn)	≤ 100 nM
CCC(C)ON(C[C@@H](O)[C@H](Cc1ccccc1)NC(=O)OC1CCOC1)S(=O)(=O)c1ccc(OC)cc1 (stereo partly drawn)	100 to 500 nM
Nc1cccc(S(=O)(=O)N(C[C@@H](O)[C@H](Cc2ccccc2)NC(=O)O[C@H]2CO[C@H]3OCC[C@H]32)OC2CCCCC2)c1	≤ 100 nM

Please give measured IC50 of the following entry: COc1ccc(S(=O)(=O)N(C[C@@H](O)[C@H](Cc2ccccc2)NC(=O)OC(C)(C)C)OC2CCOC2)cc1 (stereo partly drawn)
> 1000 nM

Please give measured IC50 of the following entry: O=C(N[C@@H](Cc1ccccc1)[C@@H](CN(OC1CCCC1)S(=O)(=O)c1ccc2c(c1)OCCO2)OP(=O)(O)O)O[C@H]1CO[C@H]2OCC[C@H]21
≤ 100 nM

Please give measured IC50 of the following entry: CS(=O)(=O)Nc1nc2cc(S(=O)(=O)N(C[C@@H](O)[C@H](Cc3ccccc3)NC(=O)O[C@@H]3CO[C@@H]4OCC[C@@H]43)OC3CCCC3)ccc2[nH]1
100 to 500 nM

Please give measured IC50 of the following entry: COc1ccc(S(=O)(=O)N(C[C@@H](O)[C@H](Cc2ccccc2)NC(=O)c2ccccc2C)OC2CCCC2)cc1
> 1000 nM

Please give measured IC50 of the following entry: COc1ccc(S(=O)(=O)N(C[C@@H](O)[C@H](Cc2ccccc2)NC(=O)OC(C)(C)C)OC(C)C)cc1
> 1000 nM

Please give measured IC50 of the following entry: CN(C)C(=O)Nc1nc2cc(S(=O)(=O)N(C[C@@H](O)[C@H](Cc3ccccc3)NC(=O)OC(C)(C)C)OC3CCCC3)ccc2[nH]1
100 to 500 nM

Please give measured IC50 of the following entry: COC(=O)Nc1nc2cc(S(=O)(=O)N(C[C@@H](O)[C@H](Cc3ccccc3)NC(=O)OC(C)(C)C)OC3CCCC3)ccc2[nH]1
≤ 100 nM

Please give measured IC50 of the following entry: O=C(N[C@@H](Cc1ccccc1)[C@H](O)CC(OC1CCCC1)S(=O)(=O)c1ccc2nccnc2c1)OC1CCOC1 (stereo in doubt)
100 to 500 nM

Please give measured IC50 of the following entry: CNC(=O)NCCNc1cccc(S(=O)(=O)N(CC(O)C(Cc2ccccc2)NC(=O)OC2COC3OCCC23)OC2CCCC2)c1 (stereo not drawn)
100 to 500 nM

Please give measured IC50 of the following entry: COC(=O)Nc1nc2cc(S(=O)(=O)N(C[C@@H](O)[C@H](Cc3ccccc3)NC(=O)OC3COCOC3)OC3CCCC3)ccc2[nH]1
≤ 100 nM

Please give measured IC50 of the following entry: NC(=O)C[C@H](NC(=O)c1ccc2ccccc2n1)C(=O)N[C@@H](Cc1ccccc1)[C@H](O)CN(OC1CCCC1)S(=O)(=O)c1cccc(N)c1
≤ 100 nM

Please give measured IC50 of the following entry: CC(C)ON(CC(O)C(Cc1ccccc1)NC(=O)OC1COC2OCCC12)S(=O)(=O)c1ccc2nc(NS(C)(=O)=O)n(Cc3ccccc3)c2c1 (stereo not drawn)
500 to 1000 nM
